Target: full-length human PKCα enzyme (Homo sapiens, UniProt P17252)
Construct: full-length human PKCα enzyme; purchased Upstate Biotechnology
Assay: Assessment of PKC-α Inhibitory Activity (MALDI-TOF kinase assay)
Format: biochemical
Settings: full-length human PKCα 0.12 μg/ml; ATP 45 μM; neurogranin 28-43 peptide 22 μM; 30 minute incubation at 24° C.; MALDI-TOF MS readout
pIC50: −log10 of the molar value.
Parameter measured: pIC50

[P] CN(C)c1cccc(Nc2nccc(NCCCN3CCOCC3)n2)c1
[Q] OCc1cccc(Nc2nccc(NCCCN3CCOCC3)n2)c1
[R] CN1CCC(CNc2ccnc(Nc3cccc(Cl)c3)n2)CC1
Let's sort these by pIC50, smallest first. Go ahead? Record the ranking as a list of labels in the requested order.
Q, P, R
(Q: 6.33, P: 7.28, R: 7.52)

----------
Molecular target: UniProt:P17252
pIC50: −log10 of the molar value.
Parameter measured: pIC50

[
  {
    "Smiles str": "CN1CC[C@@H](CNc2ccnc(Nc3cccc(Cl)c3)n2)C1",
    "Test system": "UniProt:P17252",
    "Measured number": 7.89
  }
]

[A] COc1cccc(Nc2nccc(NCCCN3CCCC3)n2)c1
[B] CN1CC[C@H](CNc2ccnc(Nc3cccc(Cl)c3)n2)C1
Could you tell me which of A and B has the lower pIC50 reading? Selection: enter the item's label.
A

Taken from patent US8354407B2.
